Test: PET hydrolysis product formed (TPA+MHET+BHET, UV-Vis) per mg enzyme (mmol/mg enzyme); higher = more PET depolymerisation activity; extreme values may be limits of the assay
Conditions: PET substrate: cryPow; 70 °C; pH 8.5; 2 h
Reported Metric: PET hydrolysis product formed

Illustrative cases are given below, each with its answer.
Residue Codes: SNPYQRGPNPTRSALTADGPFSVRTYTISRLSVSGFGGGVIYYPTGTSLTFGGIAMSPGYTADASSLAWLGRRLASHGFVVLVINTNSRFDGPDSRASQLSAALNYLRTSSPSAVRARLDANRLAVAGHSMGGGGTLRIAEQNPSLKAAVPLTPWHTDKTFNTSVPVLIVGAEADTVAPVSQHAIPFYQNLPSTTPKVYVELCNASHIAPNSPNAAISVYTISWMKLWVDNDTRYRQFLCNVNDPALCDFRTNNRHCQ [LCC-ICCG RIP]
PET hydrolysis product formed: 0.0206

Residue Codes: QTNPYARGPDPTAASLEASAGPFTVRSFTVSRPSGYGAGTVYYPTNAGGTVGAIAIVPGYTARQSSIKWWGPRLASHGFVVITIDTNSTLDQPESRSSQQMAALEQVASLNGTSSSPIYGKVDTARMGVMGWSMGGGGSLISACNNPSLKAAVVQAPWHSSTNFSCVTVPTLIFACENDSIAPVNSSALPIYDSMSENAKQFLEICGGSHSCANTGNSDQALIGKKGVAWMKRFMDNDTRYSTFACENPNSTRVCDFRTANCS [Z1-PETase]
PET hydrolysis product formed: 0.0583

Here's the next entry for you.
Find the recorded PET hydrolysis product formed belonging to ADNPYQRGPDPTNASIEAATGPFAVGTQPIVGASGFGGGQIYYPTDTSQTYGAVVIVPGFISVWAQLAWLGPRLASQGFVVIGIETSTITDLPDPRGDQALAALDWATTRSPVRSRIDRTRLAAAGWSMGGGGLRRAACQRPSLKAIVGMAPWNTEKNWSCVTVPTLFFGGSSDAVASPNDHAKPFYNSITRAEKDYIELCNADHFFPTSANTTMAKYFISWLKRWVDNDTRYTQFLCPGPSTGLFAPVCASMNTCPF [CaPETaseM9] and report it.
0.0155

###

Experiment: terephthalic acid (TPA) released, HPLC; higher = more TPA released; extreme values may be limits of the assay
Settings: PET substrate: cryPow; 70 °C; pH 5.5; 24 h
Lab note: compare terephthalic acid against 0.003 mM. Equal or greater, write y. Smaller, write n.

Here's what some known entries look like.
Residue Codes: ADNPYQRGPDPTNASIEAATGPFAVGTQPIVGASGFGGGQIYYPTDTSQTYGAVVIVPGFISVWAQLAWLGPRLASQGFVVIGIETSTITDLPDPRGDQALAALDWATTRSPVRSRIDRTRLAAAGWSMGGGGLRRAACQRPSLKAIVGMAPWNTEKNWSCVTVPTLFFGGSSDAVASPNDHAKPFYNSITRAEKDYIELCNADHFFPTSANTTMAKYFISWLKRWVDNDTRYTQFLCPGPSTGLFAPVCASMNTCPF [CaPETaseM9]
Assigned Label: y

Residue Codes: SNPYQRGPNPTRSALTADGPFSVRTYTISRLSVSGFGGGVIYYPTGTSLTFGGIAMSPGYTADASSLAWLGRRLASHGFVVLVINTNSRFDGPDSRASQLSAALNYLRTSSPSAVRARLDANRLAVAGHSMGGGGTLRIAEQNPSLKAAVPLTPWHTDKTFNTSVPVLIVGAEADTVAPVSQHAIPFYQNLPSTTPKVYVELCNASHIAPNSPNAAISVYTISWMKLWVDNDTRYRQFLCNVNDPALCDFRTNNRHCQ [LCC-ICCG RIP]
Assigned Label: y

Residue Codes: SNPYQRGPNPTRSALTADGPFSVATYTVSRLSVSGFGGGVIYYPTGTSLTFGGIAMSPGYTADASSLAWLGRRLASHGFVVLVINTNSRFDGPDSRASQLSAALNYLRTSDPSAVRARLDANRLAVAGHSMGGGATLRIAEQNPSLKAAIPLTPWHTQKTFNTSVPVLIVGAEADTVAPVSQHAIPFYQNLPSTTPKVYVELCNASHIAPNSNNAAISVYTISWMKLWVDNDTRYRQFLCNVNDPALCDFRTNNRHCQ [LCC-ICCG DAQI]
Assigned Label: y

Residue Codes: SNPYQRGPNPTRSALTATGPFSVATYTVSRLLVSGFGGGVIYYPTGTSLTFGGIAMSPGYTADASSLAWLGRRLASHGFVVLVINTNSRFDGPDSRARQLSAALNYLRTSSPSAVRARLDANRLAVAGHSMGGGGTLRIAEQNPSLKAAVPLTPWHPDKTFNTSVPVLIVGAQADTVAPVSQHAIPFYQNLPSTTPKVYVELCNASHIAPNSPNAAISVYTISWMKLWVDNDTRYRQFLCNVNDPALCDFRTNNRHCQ [LCC-ICCG I6M]
Assigned Label: y

Residue Codes: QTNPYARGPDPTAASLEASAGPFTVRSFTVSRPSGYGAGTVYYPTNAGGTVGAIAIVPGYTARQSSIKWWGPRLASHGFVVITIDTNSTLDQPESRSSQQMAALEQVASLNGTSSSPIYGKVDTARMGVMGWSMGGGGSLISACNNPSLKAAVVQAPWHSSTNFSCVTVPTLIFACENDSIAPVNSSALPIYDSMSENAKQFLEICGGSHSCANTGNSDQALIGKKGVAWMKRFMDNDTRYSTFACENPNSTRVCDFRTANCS [Z1-PETase]
Assigned Label: n

Residue Codes: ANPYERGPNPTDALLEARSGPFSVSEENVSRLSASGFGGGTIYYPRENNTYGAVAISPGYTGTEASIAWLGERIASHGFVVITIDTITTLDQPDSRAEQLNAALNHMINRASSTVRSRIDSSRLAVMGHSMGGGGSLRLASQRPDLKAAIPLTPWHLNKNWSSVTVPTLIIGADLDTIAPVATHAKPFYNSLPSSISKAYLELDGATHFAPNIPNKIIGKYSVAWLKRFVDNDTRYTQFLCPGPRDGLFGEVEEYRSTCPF [TfCut2]
Assigned Label: n

Assess whether reported terephthalic acid for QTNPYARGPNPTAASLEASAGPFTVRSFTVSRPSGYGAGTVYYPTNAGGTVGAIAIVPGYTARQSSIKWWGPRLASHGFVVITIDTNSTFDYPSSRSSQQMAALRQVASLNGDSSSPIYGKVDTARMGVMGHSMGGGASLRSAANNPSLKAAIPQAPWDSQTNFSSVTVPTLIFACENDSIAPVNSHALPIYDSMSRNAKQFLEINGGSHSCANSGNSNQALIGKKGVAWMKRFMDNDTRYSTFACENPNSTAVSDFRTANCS [DuraPETase] sits at 0.003 mM or higher.
n

Request: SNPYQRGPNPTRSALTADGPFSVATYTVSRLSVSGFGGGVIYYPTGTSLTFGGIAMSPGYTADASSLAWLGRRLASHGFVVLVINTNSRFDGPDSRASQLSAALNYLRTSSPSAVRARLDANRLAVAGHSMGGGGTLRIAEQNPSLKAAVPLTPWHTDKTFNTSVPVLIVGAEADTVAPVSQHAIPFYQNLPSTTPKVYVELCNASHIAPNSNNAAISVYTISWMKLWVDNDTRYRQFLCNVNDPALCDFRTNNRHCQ [LCC-ICCG]
y

Request: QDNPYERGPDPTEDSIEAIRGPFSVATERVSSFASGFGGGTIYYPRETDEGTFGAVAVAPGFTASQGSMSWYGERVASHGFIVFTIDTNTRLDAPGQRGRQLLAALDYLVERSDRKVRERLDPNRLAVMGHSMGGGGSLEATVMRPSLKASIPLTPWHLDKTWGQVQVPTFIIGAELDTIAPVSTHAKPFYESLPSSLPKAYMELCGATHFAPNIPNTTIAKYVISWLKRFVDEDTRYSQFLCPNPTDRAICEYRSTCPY [Cut190*SS]
n

Request: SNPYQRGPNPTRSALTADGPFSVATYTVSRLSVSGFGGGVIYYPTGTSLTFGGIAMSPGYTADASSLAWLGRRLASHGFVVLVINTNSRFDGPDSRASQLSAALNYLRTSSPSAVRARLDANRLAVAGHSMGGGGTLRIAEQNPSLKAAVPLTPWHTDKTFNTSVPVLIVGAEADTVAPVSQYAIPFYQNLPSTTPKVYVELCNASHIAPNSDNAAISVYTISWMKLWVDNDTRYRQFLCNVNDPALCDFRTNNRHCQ [LCC-A2]
y

Request: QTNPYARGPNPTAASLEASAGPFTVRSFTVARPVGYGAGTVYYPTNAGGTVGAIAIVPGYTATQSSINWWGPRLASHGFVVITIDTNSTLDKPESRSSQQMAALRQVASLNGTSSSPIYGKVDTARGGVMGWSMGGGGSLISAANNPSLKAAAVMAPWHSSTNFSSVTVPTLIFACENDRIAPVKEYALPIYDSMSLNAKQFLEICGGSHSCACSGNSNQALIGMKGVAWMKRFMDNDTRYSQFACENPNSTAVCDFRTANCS [HotPETase]
y

Data credit: the supplement of paper PMC11196671
